Quick reference: pIC50 of the listed items.
target: UniProt P11309
Sequence (P11309 whole entry): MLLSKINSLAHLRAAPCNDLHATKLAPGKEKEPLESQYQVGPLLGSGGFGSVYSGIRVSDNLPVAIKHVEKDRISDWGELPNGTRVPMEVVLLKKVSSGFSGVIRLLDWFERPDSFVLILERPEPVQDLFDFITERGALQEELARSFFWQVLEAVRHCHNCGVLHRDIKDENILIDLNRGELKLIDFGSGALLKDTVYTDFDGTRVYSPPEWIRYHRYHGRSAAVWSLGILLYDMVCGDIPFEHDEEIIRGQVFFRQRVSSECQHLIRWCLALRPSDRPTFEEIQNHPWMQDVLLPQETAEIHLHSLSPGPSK
pIC50: −log10 of the molar value.
PROPERTY MEASURED: pIC50

>>> endpoint_value("CC1=Nc2c(F)cc(-c3nc(Nc4ccc(C5CCN(C)CC5)cn4)ncc3F)cc2C12CCCC2")
7.42
>>> endpoint_value("CC1=Nc2c(F)cc(-c3nc(Nc4ccc(N5CCNCC5)cn4)ncc3F)cc2C1(C)C")
6.66
>>> endpoint_value("CCN1CCC(c2ccc(Nc3ncc(F)c(-c4cc(F)c5c(c4)C4(CCCC4)C(C)=N5)n3)nc2)CC1")
7.82
>>> endpoint_value("CCC1(C)C(C)=Nc2c(F)cc(-c3nc(Nc4ccc(N5CCNCC5)cn4)ncc3F)cc21 (stereo not drawn)")
6.34
>>> endpoint_value("CC1=Nc2c(F)cc(-c3nc(Nc4ccc(N5CCNCC5)cn4)ncc3F)cc2C12CCCC2")
7.82
>>> endpoint_value("CCC1(C)C(C)=Nc2c(F)cc(-c3nc(Nc4ccc(C5CCN(C)CC5)cn4)ncc3F)cc21 (stereo not drawn)")
7.14
